- testSystem: T1, Recombinant FGFR4 (G&P Biosciences) (human, UniProt P22455 22-369)
- T1 construct: Bought protein; the SPR method says only 'Recombinant; also called rFGFR4; extracellular FGFR4
- T1 sequence: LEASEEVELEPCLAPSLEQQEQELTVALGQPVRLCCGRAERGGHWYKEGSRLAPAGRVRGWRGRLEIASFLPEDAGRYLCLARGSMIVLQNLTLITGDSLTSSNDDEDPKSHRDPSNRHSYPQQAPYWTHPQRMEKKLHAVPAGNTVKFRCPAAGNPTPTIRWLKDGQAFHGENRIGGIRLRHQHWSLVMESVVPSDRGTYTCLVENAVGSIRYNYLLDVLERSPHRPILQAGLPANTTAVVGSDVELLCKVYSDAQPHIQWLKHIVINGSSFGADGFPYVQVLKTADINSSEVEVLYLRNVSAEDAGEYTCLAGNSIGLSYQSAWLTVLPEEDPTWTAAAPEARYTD
- assayProcedure: SPR (BIAcore T200), single cycle kinetics, FGFR4 amine-immobilised, nanobody as analyte, heterogeneous ligand model, component 2 (kon2)
measurementKind: kon
Express your answer as a number followed by its unit.

Answered cases to consult:
B5 nanobody (anti-FGFR4 sdAb, NaLi-H1 library) (VHH, Recombinant nanobody of about 17 kDa; also called B5 sdAb; not shown: C-terminal Myc/6xHis-tag and an additional cysteine) VHH: EVQLQASGGGFVQPGGSLRLSCAASGRTSWLTTMGWFRQAPGKEREFVSAISSFSSKQGYYADSVKGRFTISRDNSKNTVYLQMNSLRAEDTATYYCAYASYPRHQGNGRWKDFVEYWGQGTQVTVSS ... 173000 M⁻¹ s⁻¹
F8 nanobody (anti-FGFR4 sdAb, Gimli library) (VHH, Recombinant nanobody of about 17 kDa; also called F8 sdAb; not shown: C-terminal Myc/6xHis-tag and an additional cysteine) VHH: EVQLVESGGGLVQPGGSLRLSCAASGTGYALDDMGWVRQAPGKGLEWVSAISDDESMADYYADSVKGRFTISRDNSKNTVYLQMNSLRAEDTAVYYCASYKEYKYQSGHHYFAYRGQGTLVTVSS ... 1.35e+06 M⁻¹ s⁻¹
B1 nanobody (anti-FGFR4 sdAb, NaLi-H1 library) (VHH, also called B1 sdAb; not shown: C-terminal Myc/6xHis-tag and an additional cysteine) VHH: EVQLQASGGGFVQPGGSLRLSCAASGYTSRSSAMGWFRQAPGKEREFVSAISDLTGYPYYYADSVKGRFTISRDNSKNTVYLQMNSLRAEDTATYYCAAYQDDKWTYGSQHGKYWGQGTQVTVSS ... 216000 M⁻¹ s⁻¹

Given item A8 nanobody (anti-FGFR4 sdAb, NaLi-H1 library) (VHH, also called A8 sdAb; not shown: C-terminal Myc/6xHis-tag and an additional cysteine) VHH: EVQLQASGGGFVQPGGSLRLSCAASGRTYSRDTMGWFRQAPGKEREFVSAISSRHSHTTYYADSVKGRFTISRDNSKNTVYLQMNSLRAEDTATYYCAEWDVFDMHYALPPMWYWGQGTQVTVSS , the value recorded as its kon is 66700 M⁻¹ s⁻¹
